test system: EMT6; assay: Compound is measured for surviving fractions of EMT6 tumor cells treated in culture with (0.50 uM) concentration for 1 hr under aerobic condition.; assay type: functional; settings: Mus musculus, EMT6, 1 h; read-out: ED50 (the source's name)
# label = bin(measured EC50), where bins are band 1 = under 0.7 µM, band 2 = from 0.7 µM up to 30 µM, band 3 = 30 µM and over

{"Smiles Notation": "CC(=O)OCc1ccc2c(c1)C(=O)c1ccccc1C2=O", "Category": "band 2"}
{"Smiles Notation": "O=C1c2ccccc2C(=O)c2cc(CCl)ccc21", "Category": "band 1"}
{"Smiles Notation": "CNC(=O)OCc1ccc2c(c1)C(=O)c1ccccc1C2=O", "Category": "band 2"}
{"Smiles Notation": "Cc1ccc(S(=O)(=O)OCc2ccc3c(c2)C(=O)c2ccccc2C3=O)cc1", "Category": "band 3"}
{"Smiles Notation": "O=C1c2ccccc2C(=O)c2cc(CO)ccc21", "Category": "band 3"}
{"Smiles Notation": "CS(=O)(=O)OCc1ccc2c(c1)C(=O)c1ccccc1C2=O", "Category": "band 3"}
{"Smiles Notation": "Cc1ccc2c(c1)C(=O)c1ccccc1C2=O", "Category": "band 2"}
{"Smiles Notation": "COc1cccc2c1C(=O)c1c(O)c3c(c(O)c1C2=O)C[C@@](O)(C(=O)CO)C[C@@H]3O[C@H]1C[C@H](N)[C@H](O)[C@H](C)O1", "Category": "band 1"}

----------
test system: EMT6; test: Compound is measured for surviving fractions of EMT6 tumor cells treated in culture with (0.50 uM) concentration for 1 hr under hypoxic condition.; format: functional; settings: Mus musculus, EMT6, 1 h; read-out: ED50 (the source's name)
pEC50: −log10 of the molar value.
Quick rule: pEC50 of at least 6 means yes, below that means no.

{"Smiles Notation": "CO[C@@]12[C@H](COC(N)=O)C3=C(C(=O)C(C)=C(N)C3=O)N1C[C@@H]1N[C@@H]12", "Category": "yes"}
{"Smiles Notation": "O=C1c2ccccc2C(=O)c2cc(CCl)ccc21", "Category": "yes"}
{"Smiles Notation": "COc1cccc2c1C(=O)c1c(O)c3c(c(O)c1C2=O)C[C@@](O)(C(=O)CO)C[C@@H]3O[C@H]1C[C@H](N)[C@H](O)[C@H](C)O1", "Category": "yes"}
{"Smiles Notation": "CS(=O)(=O)OCc1ccc2c(c1)C(=O)c1ccccc1C2=O", "Category": "no"}
{"Smiles Notation": "Cc1ccc2c(c1)C(=O)c1ccccc1C2=O", "Category": "yes"}
{"Smiles Notation": "Cc1ccc(S(=O)(=O)OCc2ccc3c(c2)C(=O)c2ccccc2C3=O)cc1", "Category": "no"}
{"Smiles Notation": "COCc1ccc2c(c1)C(=O)c1ccccc1C2=O", "Category": "yes"}
{"Smiles Notation": "O=C1c2ccccc2C(=O)c2cc(CO)ccc21", "Category": "no"}
{"Smiles Notation": "CNC(=O)OCc1ccc2c(c1)C(=O)c1ccccc1C2=O", "Category": "yes"}
{"Smiles Notation": "CC(=O)OCc1ccc2c(c1)C(=O)c1ccccc1C2=O", "Category": "no"}

// provenance: ChEMBL document CHEMBL1121562
